// data source = patent US6916812B2

# target.desc: cloned human MC4R (Homo sapiens, UniProt P32245)
# Construct: made in house; host or cells: Hi5 insect cells (baculovirus infection); membrane preparation
# Sequence (P32245 whole entry): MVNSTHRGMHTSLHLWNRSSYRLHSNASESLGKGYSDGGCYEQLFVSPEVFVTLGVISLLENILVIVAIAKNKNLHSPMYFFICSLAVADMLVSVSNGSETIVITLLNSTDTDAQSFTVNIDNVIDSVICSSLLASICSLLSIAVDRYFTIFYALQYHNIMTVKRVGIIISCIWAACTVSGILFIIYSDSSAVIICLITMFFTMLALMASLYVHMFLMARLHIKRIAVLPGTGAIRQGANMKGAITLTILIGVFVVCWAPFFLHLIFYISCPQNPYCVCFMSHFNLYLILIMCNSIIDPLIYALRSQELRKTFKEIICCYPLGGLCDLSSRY
# measurement.notes: Membrane binding assay: competitive inhibition of [125I]NDP-α-MSH binding
# condition.context: at 10 μM; [125I]NDP-α-MSH displacement; read-out: Displacement Rate (%) (at 10 μM)
Task for the reader: assign each of the following compounds its reported inhibition at 10 µM.

molecule: N[C@@H](Cc1ccc(-c2cccc([N+](=O)[O-])c2)cc1)C(=O)N1CCN(Cc2cccc(Cl)c2Cl)CC1
assay.value: 71 to 90%

Lab note: each compound below needs its inhibition at 10 µM filled in.
1. O=C([C@H](Cc1ccc(OCc2ccccc2)cc1)NCCN1CCCCC1)N1CCN(Cc2cccc(Cl)c2Cl)CC1
2. N[C@@H](Cc1ccc(OCc2ccccc2)cc1)C(=O)N1CCN(C2CCN(Cc3ccccc3)CC2)CC1
3. N[C@@H](Cc1ccc(-c2ccc(Oc3ccccc3)cc2)cc1)C(=O)N1CCN(Cc2cccc(Cl)c2Cl)CC1

1. 91 to 100%
2. 35 to 70%
3. 91 to 100%

Would you mind listing inhibition at 10 µM for each of the following compounds?
1. CN(C)CCN[C@@H](Cc1ccc(OCc2ccccc2)cc1)C(=O)N1CCN(Cc2cccc(Cl)c2Cl)CC1
2. CCOc1ccccc1CN1CCN(C(=O)[C@@H](N)Cc2ccc(OCc3ccccc3)cc2)CC1
3. N[C@@H](Cc1ccc(OCc2ccccc2)cc1)C(=O)N1CCCN(Cc2ccc([N+](=O)[O-])cc2)CC1

["91 to 100%", "71 to 90%", "35 to 70%"]
